# target or system: NDM-1 (Klebsiella pneumoniae, UniProt C7C422)
# Sequence (C7C422 whole entry, looked up, species assumed): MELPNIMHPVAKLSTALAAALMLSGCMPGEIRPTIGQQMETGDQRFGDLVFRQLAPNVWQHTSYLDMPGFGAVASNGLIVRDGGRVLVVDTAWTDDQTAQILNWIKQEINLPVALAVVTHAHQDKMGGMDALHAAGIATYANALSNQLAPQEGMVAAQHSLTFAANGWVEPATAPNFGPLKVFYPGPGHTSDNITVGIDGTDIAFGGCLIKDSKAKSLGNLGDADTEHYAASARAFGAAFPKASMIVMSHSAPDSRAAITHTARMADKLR
pIC50: −log10 of the molar value.
Outcome label depends on pIC50 relative to 8: at/above gives Met, below gives Not met.

| chemical string | target or system | label class |
| --- | --- | --- |
| COC1(CO)CCN(c2ccc(S(=O)(=O)NC[C@H](O)CN)c(S(N)(=O)=O)c2-c2nn[nH]n2)CC1 | NDM-1 (Klebsiella pneumoniae, UniProt C7C422) | Met |
| NS(=O)(=O)c1c(S(=O)(=O)N[C@@H]2CCNC2)ccc(N2CCC(CCO)CC2)c1-c1nnn[nH]1 | NDM-1 (Klebsiella pneumoniae, UniProt C7C422) | Met |
| N[C@H]1CCN(c2ccc(S(=O)(=O)N[C@@H]3CCNC3)c(S(N)(=O)=O)c2-c2nn[nH]n2)C[C@H]1F | NDM-1 (Klebsiella pneumoniae, UniProt C7C422) | Met |
| NC[C@@H](O)CNS(=O)(=O)c1ccc(N[C@@H]2CCC[C@H]2N)c(-c2nn[nH]n2)c1S(N)(=O)=O | NDM-1 (Klebsiella pneumoniae, UniProt C7C422) | Not met |
| NS(=O)(=O)c1c(S(=O)(=O)C2CNC2)ccc(N2C[C@H](O)C[C@@H](O)C2)c1-c1nnn[nH]1 | NDM-1 (Klebsiella pneumoniae, UniProt C7C422) | Not met |
| NC[C@@H](O)CNS(=O)(=O)c1ccc(N2CCC3(CC2)CNC(N)=N3)c(-c2nn[nH]n2)c1S(N)(=O)=O | NDM-1 (Klebsiella pneumoniae, UniProt C7C422) | Met |

====

# target or system: IMP-1 (Serratia marcescens)
# Sequence (P52699 whole entry, looked up, species assumed): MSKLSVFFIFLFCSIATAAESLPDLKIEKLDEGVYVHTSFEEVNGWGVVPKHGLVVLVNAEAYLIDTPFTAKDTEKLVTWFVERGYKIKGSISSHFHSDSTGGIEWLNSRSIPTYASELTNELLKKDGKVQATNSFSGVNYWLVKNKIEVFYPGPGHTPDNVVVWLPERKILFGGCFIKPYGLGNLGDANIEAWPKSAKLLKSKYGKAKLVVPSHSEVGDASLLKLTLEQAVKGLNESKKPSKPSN
pIC50: −log10 of the molar value.
Mark met for reported pIC50 of 9 or greater; mark not met for anything smaller.

| molecule | label class |
| --- | --- |
| NCC(=O)N1CCN(c2ccc(S(=O)(=O)NC[C@H](O)CN)c(S(N)(=O)=O)c2-c2nn[nH]n2)CC1 | not met |
| NS(=O)(=O)c1c(S(=O)(=O)C2CNC2)ccc(N2CCC(O)CC2)c1-c1nnn[nH]1 | not met |
| NC1CCN(c2ccc(S(=O)(=O)N[C@@H]3CCNC3)c(S(N)(=O)=O)c2-c2nn[nH]n2)C(=O)C1 (stereo partly shown) | not met |
| NS(=O)(=O)c1c(S(=O)(=O)N[C@@H]2CCNC2)ccc(N2CCC(OCCO)CC2)c1-c1nnn[nH]1 | met |
| COC1(CN(C)C)CN(c2ccc(S(=O)(=O)N[C@@H]3CCNC3)c(S(N)(=O)=O)c2-c2nnn[nH]2)C1 | not met |
| C[C@H](CN)NS(=O)(=O)c1ccc(N2CCC(CO)CC2)c(-c2nnn[nH]2)c1S(N)(=O)=O | met |

====

# target or system: NDM-1 (Klebsiella pneumoniae)
pIC50: −log10 of the molar value. Structures can show the parent of a compound that is named as a salt.

| molecule | pIC50 |
| --- | --- |
| NC[C@@H](O)CNS(=O)(=O)c1ccc(N2CCC(N)CC2)c(-c2nn[nH]n2)c1S(N)(=O)=O | 7.58 |
| NS(=O)(=O)c1c(S(=O)(=O)N[C@@H]2CCNC2)ccc(N2CCN(C(=O)CO)CC2)c1-c1nnn[nH]1 | 9.29 |
| NS(=O)(=O)c1c(S(=O)(=O)N[C@@H]2CCNC2)ccc(N2CCOC(CO)C2)c1-c1nnn[nH]1 (stereo partly shown) | 9.17 |
| COC1(CN(C)C)CN(c2ccc(S(=O)(=O)N[C@@H]3CCNC3)c(S(N)(=O)=O)c2-c2nnn[nH]2)C1 | 7.53 |
| NC[C@@H](O)CNS(=O)(=O)c1ccc(N[C@H]2C[C@@H](N)C2)c(-c2nnn[nH]2)c1S(N)(=O)=O | 6.95 |
| NC[C@@H](O)CNS(=O)(=O)c1ccc(N2CCC(F)(CN)CC2)c(-c2nn[nH]n2)c1S(N)(=O)=O | 8.61 |
| NS(=O)(=O)c1c(S(=O)(=O)C2CNC2)ccc(N2CCC(CCO)CC2)c1-c1nnn[nH]1 | 9.12 |
| NCCC1CCN(c2ccc(S(=O)(=O)N[C@@H](CN)CO)c(S(N)(=O)=O)c2-c2nn[nH]n2)CC1 | 9.89 |
| C[C@H](CN)NS(=O)(=O)c1ccc(N2CC[C@@H](N)[C@@H](F)C2)c(-c2nn[nH]n2)c1S(N)(=O)=O (racemic) | 9.02 |
| NC1CCN(c2ccc(S(=O)(=O)N[C@@H]3CCNC3)c(S(N)(=O)=O)c2-c2nnn[nH]2)CC1 | 8.01 |
| CN(C)[C@@H]1CCN(c2ccc(S(=O)(=O)N[C@@H]3CCNC3)c(S(N)(=O)=O)c2-c2nnn[nH]2)C1 | 7.65 |
| NC1CCCN(c2ccc(S(=O)(=O)C3CNC3)c(S(N)(=O)=O)c2-c2nnn[nH]2)CC1 (stereo not shown) | 6.91 |
| NS(=O)(=O)c1c(S(=O)(=O)N[C@@H]2CCNC2)ccc(N2CCN(CCCO)CC2)c1-c1nnn[nH]1 | 8.77 |
| C[C@H](CN)NS(=O)(=O)c1ccc(N2CCC(CO)CC2)c(-c2nnn[nH]2)c1S(N)(=O)=O | 10.22 |
| N[C@@H]1CCCN(c2ccc(S(=O)(=O)C3CNC3)c(S(N)(=O)=O)c2-c2nnn[nH]2)C1 | 7.21 |
| NC[C@@H](O)CNS(=O)(=O)c1ccc(N2CCN(C(CO)CO)CC2)c(-c2nn[nH]n2)c1S(N)(=O)=O | 8.94 |
| NC[C@@H](O)CNS(=O)(=O)c1ccc(N2C[C@H]3CNC[C@H]3C2)c(-c2nn[nH]n2)c1S(N)(=O)=O | 7.91 |
| NC[C@@H](O)CNS(=O)(=O)c1ccc(N2CCC[C@@H](NCCO)C2)c(-c2nn[nH]n2)c1S(N)(=O)=O [Example 130, trifluoroacetate] | 7.50 |
| CC1(O)CCN(c2ccc(S(=O)(=O)N[C@@H]3CCNC3)c(S(N)(=O)=O)c2-c2nnn[nH]2)CC1 | 9.59 |
| NS(=O)(=O)c1c(S(=O)(=O)N[C@@H]2CCNC2)ccc(N2CC[C@H](CO)C2)c1-c1nnn[nH]1 | 8.92 |
| C[C@@H](CN)NS(=O)(=O)c1ccc(N2CCC(O)(CN)CC2)c(-c2nn[nH]n2)c1S(N)(=O)=O | 9.37 |
| NC[C@@H](O)CNS(=O)(=O)c1ccc(N2CCNC(CO)C2)c(-c2nn[nH]n2)c1S(N)(=O)=O (stereo partly shown) | 7.84 |
| NCCN1CCN(c2ccc(S(=O)(=O)NC[C@H](O)CN)c(S(N)(=O)=O)c2-c2nn[nH]n2)CC1=O | 7.57 |
| NC[C@@H](O)CNS(=O)(=O)c1ccc(N2CCN(CCCO)CC2)c(-c2nnn[nH]2)c1S(N)(=O)=O | 8.51 |
| NS(=O)(=O)c1c(S(=O)(=O)N[C@@H]2CCNC2)ccc(N2CCCN(CCO)CC2)c1-c1nnn[nH]1 | 7.79 |
| NCC1(O)CCN(c2ccc(S(=O)(=O)N[C@@H]3CCNC3)c(S(N)(=O)=O)c2-c2nnn[nH]2)CC1 | 8.50 |
| NC[C@@H](O)CNS(=O)(=O)c1ccc(N2CCC(F)(CO)CC2)c(-c2nn[nH]n2)c1S(N)(=O)=O | 9.35 |
| NS(=O)(=O)c1c(S(=O)(=O)N[C@@H]2CCNC2)ccc(N2CCC(CCO)C2)c1-c1nnn[nH]1 (stereo partly shown) | 9.19 |
